target: OGG1 WT (UniProt O15527); test: EMSA; details: 8-oxoguanine at position 16 of strand 1, opposite C; EMSA: 0.1 nM DNA, 0.5-4000 nM OGG1, 25 mM Tris-HCl pH 7.6, 175 nM NaCl (sic), 1 mM EDTA, 1 mM DTT, 300 ug/ml BSA, 12% glycerol, 15 min, 4 C
Sequence (O15527 whole entry): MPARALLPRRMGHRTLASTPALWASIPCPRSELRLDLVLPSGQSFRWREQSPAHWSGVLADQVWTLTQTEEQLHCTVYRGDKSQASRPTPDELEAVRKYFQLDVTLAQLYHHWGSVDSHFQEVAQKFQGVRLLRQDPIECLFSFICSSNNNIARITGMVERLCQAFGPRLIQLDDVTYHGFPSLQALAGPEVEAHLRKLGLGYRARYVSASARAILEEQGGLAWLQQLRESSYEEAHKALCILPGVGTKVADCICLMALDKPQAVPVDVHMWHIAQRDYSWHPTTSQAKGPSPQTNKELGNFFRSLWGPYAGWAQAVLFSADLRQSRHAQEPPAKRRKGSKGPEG
test.readout: Kd (nM)
Give the quantity in nM, number only.

Asked: Given CGTTCAACGTGCACTGACAGCACGTCCCAT (double strand) [8-oxoG:C 30-mer duplex] , state its recorded Kd.
Given back: 1.9

====

target: OGG1 WT (UniProt O15527); test: EMSA; details: 8-oxoguanine at position 16 of strand 1, opposite A; EMSA: 0.1 nM DNA, 0.5-4000 nM OGG1, 25 mM Tris-HCl pH 7.6, 175 nM NaCl (sic), 1 mM EDTA, 1 mM DTT, 300 ug/ml BSA, 12% glycerol, 15 min, 4 C
test.readout: Kd (mM)
Provide only the numeric value, understood in mM.

Asked: Can you look up the measured Kd of CGTTCAACGTGCACTGACAGCACGTCCCAT / ATGGGACGTGCTGTAAGTGCACGTTGAACG [8-oxoG:A 30-mer duplex] for me?
Given back: 0.000201

====

molecular target: OGG1 C28S C28S (UniProt O15527); experiment: EMSA; conditions: tetrahydrofuran abasic analog at position 16 of strand 1 (written N); opposite base Y is C or A, not stated for this assay (written N); EMSA: 0.1 nM DNA, 0.5-4000 nM OGG1, 25 mM Tris-HCl pH 7.6, 175 nM NaCl (sic), 1 mM EDTA, 1 mM DTT, 300 ug/ml BSA, 12% glycerol, 15 min, 4 C
Sequence (O15527 whole entry C28S): as the sequence (O15527 whole entry) above, with C28S counted along it
test.readout: Kd

Asked: Query: Kd; subject: CGTTCAACGTGCACTNACAGCACGTCCCAT (double strand) [THF 30-mer duplex]
Given back: 2.2 nM
